experiment: Stat Signaling Pathway (AID 446); details: ME-180 (cervical carcinoma) SIE beta-lactamase reporter, IL-6 stimulated, 5 h; at 17.2 µM (top of the series) unless noted;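 note: ME-180 cervical cancer cells given 40 pM IL-6 alongside compound; SIE-controlled beta-lactamase reporter measured as 460/530 nm FRET emission ratio; % is set by controls: 0 for no effect and ±100 for the full control effect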
Inconclusive results are not listed.
Property: activity, negative = inhibition (%)

>>> numeric_readout("CCCCCSc1nc(C)c(CC(=O)O)c(=O)[nH]1")
12.4
>>> numeric_readout("COc1ccc(C2=CC(c3cccc(OC)c3)n3nnnc3N2)cc1 (centres undefined)")
-2.84
>>> numeric_readout("CN1C2C=C3C(C#N)=C(N)C(C#N)(C#N)[C@@H](c4cccs4)C3C1CC2 (some centres undefined)")
13.6
>>> numeric_readout("O=C(OCCCN1CCCC1)C1(c2ccccc2)CCCC1")
13.7

====

tested on: TAB113; assay: qHTS profiling for inhibitors of Plasmodium falciparum proliferation (AID 504749); note: nearly all actives have a fitted effect of over 60% in size; conditions: P. falciparum in erythrocytes, SYBR Green DNA, 72 h; series mostly up to 28.7 µM
Results filed as inconclusive are left out. Calls of active or inactive are those of the source. The call rests on the fitted dose curve; in most records, active means well fitted inhibition curve with a large enough effect; inconclusive means small, poorly fitted or top-dose-only effect; inactive means flat fitted curve, though single readings scatter.
Classes used: 1 (yes) for active, 0 (no) for inactive

>>> answer_label("COc1ccc(S(=O)(=O)N2c3ccc(Cl)cc3[C@](O)(c3ccccc3Cl)[C@@H]2C(=O)N2CCC[C@H]2C(N)=O)cc1OC")
"0 (no)"
>>> answer_label("CC[C@H](C)[C@H]1O[C@]2(CC[C@@H]1C)C[C@@H]1C[C@@H](C/C=C(\\C)[C@H](O[C@@H]3C[C@H](OC)[C@H](O[C@@H]4C[C@H](OC)[C@@H](O)[C@H](C)O4)[C@H](C)O3)[C@@H](C)/C=C/C=C3\\CO[C@@H]4[C@H](O)C(C)=C[C@@H](C(=O)O1)[C@]34O)O2")
"1 (yes)"
>>> answer_label("CC1OC(OC2C(O)CC(OC3C(O)CC(OC4CCC5(C)C(CCC6C5CCC5(C)C(C7=CC(=O)OC7)CCC65O)C4)OC3C)OC2C)CC(O)C1O (centres undefined)")
"0 (no)"
>>> answer_label("CNC1C(O)C(OC2C(N)CC(N)C(OC3OC(CN)=CCC3N)C2O)OCC1(C)O (centres undefined)")
"0 (no)"
>>> answer_label("CC(=O)OCC(=O)[C@@]1(O)CCC2C3C[C@H](C)C4=CC(=O)C=CC4(C)C3C(O)CC21C (some centres undefined)")
"0 (no)"
>>> answer_label("Cc1cc2nc3c(=O)[nH]c(=O)nc-3n(CC(O)C(O)C(O)COP(=O)(O)O)c2cc1C (centres undefined)")
"0 (no)"
>>> answer_label("CCN1CCN(C(=O)NC(C(=O)NC2C(=O)N3C(C(=O)O)=C(CSc4nnnn4C)CSC23)c2ccc(O)cc2)C(=O)C1=O (centres undefined)")
"0 (no)"
>>> answer_label("CCCCCCCCCCCC(=O)OCC(O)C1OCC(O)C1O (centres undefined)")
"0 (no)"
>>> answer_label("CN1[C@H]2CC(OC(=O)[C@H](CO)c3ccccc3)C[C@H]1[C@H]1O[C@H]12 (some centres undefined)")
"0 (no)"
>>> answer_label("CC1(C)O[C@@H]2C[C@H]3[C@@H]4CCC5=CC(=O)C=C[C@]5(C)[C@H]4C(O)C[C@]3(C)[C@]2(C(=O)CO)O1 (some centres undefined)")
"0 (no)"
>>> answer_label("CC(=O)C1(O)Cc2c(O)c3c(c(O)c2C(OC2CC(N)C(O)C(C)O2)C1)C(=O)c1c(O)cccc1C3=O (centres undefined)")
"1 (yes)"
>>> answer_label("C=C(CC[C@@H](C)[C@H]1CCC2[C@]1(C)CC[C@]13C[C@@]14CCC(OC(=O)/C=C/c1ccc(O)c(OC)c1)C(C)(C)[C@@H]4CC[C@@]23C)C(C)C (some centres undefined)")
"0 (no)"
>>> answer_label("CCCC[C@H](O)c1ccccc1")
"0 (no)"
>>> answer_label("C[C@@H]1CCN(C(=O)[C@H](CCCNC(=N)N)NS(=O)(=O)c2cccc3c2NC[C@H](C)C3)[C@@H](C(=O)O)C1")
"0 (no)"
>>> answer_label("Cc1cnc(C(=O)O)cn1")
"0 (no)"
>>> answer_label("C=C[C@H]1CN2CCC1C[C@H]2[C@H](O)c1ccnc2ccc(OC)cc12 (some centres undefined)")
"1 (yes)"
>>> answer_label("COc1cc(/C=C2\\CCC/C(=C\\c3ccc(O)c(OC)c3)C2=O)ccc1O")
"1 (yes)"
>>> answer_label("C[C@H]1OC(OC2C(O)[C@@H](O)C(OC3C(O)[C@@H](O)C(O)O[C@@H]3CO)O[C@@H]2CO)[C@H](O)C(O)C1N[C@H]1C=C(CO)[C@@H](O)[C@H](O)C1O (some centres undefined)")
"0 (no)"
>>> answer_label("C=CC1CN2CCC1CC2[C@@H](O)c1ccnc2ccc(OC)cc12 (some centres undefined)")
"1 (yes)"
>>> answer_label("CC(=O)OCC(=O)[C@@]1(O)CCC2C3CCC4=CC(=O)C=CC4(C)C3C(O)C[C@]21C (some centres undefined)")
"0 (no)"
>>> answer_label("CCC(C(=O)O)C1OC(C(C)C(O)C(C)C(=O)C(CC)C2OC3(C=CC(O)C4(CCC(C)(C5CCC(O)(CC)C(C)O5)O4)O3)C(C)CC2C)C(C)CC1C (centres undefined)")
"1 (yes)"
>>> answer_label("CCCSS/C(CCO)=C(/C)N(C=O)Cc1cnc(C)nc1N")
"0 (no)"
>>> answer_label("Cn1cc(C(=O)[C@@H]2CCc3[nH]cnc3C2)c2ccccc21")
"0 (no)"
>>> answer_label("Cc1ccc(S(=O)(=O)NC(=O)NC(C)Cc2ccccc2)cc1 (centres undefined)")
"0 (no)"
>>> answer_label("NCCCCC(N)C(=O)O (centres undefined)")
"0 (no)"
>>> answer_label("NC(C(=O)O)c1ccc(O)cc1 (centres undefined)")
"0 (no)"
>>> answer_label("C=C1C(=O)O[C@@H]2[C@@H]1CC/C(C)=C\\CC[C@@]1(C)O[C@H]21")
"0 (no)"
>>> answer_label("CN[C@H](C)CCC=C(C)C")
"1 (yes)"
>>> answer_label("C[C@@H](O)[C@@H]1C(=O)N2C(C(=O)O)=C([C@H]3CCCO3)S[C@H]12")
"0 (no)"
